- target: T1, DDX21Fl monomer (human, UniProt Q9NR30 1-783, L611R;A612R;A613R;A614R;L615R;A616R)
- T1 sequence: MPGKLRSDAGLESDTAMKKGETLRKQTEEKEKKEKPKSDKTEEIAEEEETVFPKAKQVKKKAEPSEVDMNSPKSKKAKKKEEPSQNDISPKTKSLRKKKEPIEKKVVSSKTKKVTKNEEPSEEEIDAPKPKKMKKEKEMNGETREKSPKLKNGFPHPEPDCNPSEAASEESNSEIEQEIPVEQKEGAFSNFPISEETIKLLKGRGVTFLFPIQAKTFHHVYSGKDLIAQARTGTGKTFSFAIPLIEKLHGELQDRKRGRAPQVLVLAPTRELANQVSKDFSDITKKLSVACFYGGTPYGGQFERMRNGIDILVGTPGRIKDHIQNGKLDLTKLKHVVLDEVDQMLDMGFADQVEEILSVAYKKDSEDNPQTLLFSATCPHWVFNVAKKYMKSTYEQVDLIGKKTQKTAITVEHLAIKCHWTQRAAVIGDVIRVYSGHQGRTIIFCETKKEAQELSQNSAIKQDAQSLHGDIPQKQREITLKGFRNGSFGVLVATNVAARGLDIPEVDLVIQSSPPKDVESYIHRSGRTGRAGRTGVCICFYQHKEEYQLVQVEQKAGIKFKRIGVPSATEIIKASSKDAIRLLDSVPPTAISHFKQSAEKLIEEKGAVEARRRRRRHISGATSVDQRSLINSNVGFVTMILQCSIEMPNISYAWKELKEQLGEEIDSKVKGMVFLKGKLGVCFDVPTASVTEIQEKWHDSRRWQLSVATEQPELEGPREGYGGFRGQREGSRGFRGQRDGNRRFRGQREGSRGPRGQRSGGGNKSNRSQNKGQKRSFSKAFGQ
- test-method-notes: fluorescence polarization; FP: 50 mM Tris pH 7.5, 50 mM KCl, 5 mM MgCl2, no ATP; Hill-slope fit; temperature not given in the material
- condition-info: protein: recombinant; label: 5'-FAM on 15-mer; 3' overhang 15 nt
observable: pKd
Answers are plain numbers, as −log10 of the molar value.

Record summary for dsRNA 15/30mer 3' overhang (dsRNA) RNA 1: GUUUCGGAUCGACGC RNA 2: GCGUCGAUCCGAAACUAUACUUAAUUUUAA : reported pKd = 7.86
